# Test system: OVCAR-8 ovarian
# assay-method-text: NCI-60 one-dose screen, 48 h (100 = growth as untreated, 0 = no growth, -100 = all killed)
# condition-context: 10 µM unless noted
# Method: Growth inhibition of the OVCAR-8 human tumor cell line is measured as a screen for anti-cancer activity. Cells are grown in 96 well plates and exposed to the test compound for 48 hours. Compounds are tested at a single concentration, which is 10^-5 M for most compounds. The reported endpoint is percent growth (GI% or GIPRCNT), where numbers from 0 - 100% represent growth inhibition, and numbers from -100% - 0 represent cell death. For example, a value of 40 represents 60% growth inhibition. […]
Compounds without any hit were thinned out: in the full panel of roughly 83,000, 20% have a hit. The source made the active and inactive calls. The calls were made as follows: active = growth percent below 10; inactive = the rest.
Below: a set of entries, each annotated with reported growth.

{"smiles-text": "COc1cccc(-c2nc3sccn3c2/C=C/C(=O)c2ccc(C(F)(F)F)cc2)c1", "target-of-assay": "OVCAR-8 ovarian", "test-value": "81.1% (inactive)"}
{"smiles-text": "CCc1ccccc1-n1c(-c2ccc(Cl)cc2)cc(-c2ccc(Cl)cc2)c(C#N)c1=O", "target-of-assay": "OVCAR-8 ovarian", "test-value": "88.9% (inactive)"}
{"smiles-text": "O=C1C=C[C@]2(C[C@@H](c3cccc(C(F)(F)F)c3)O[C@@H](c3cccc(C(F)(F)F)c3)O2)O1", "target-of-assay": "OVCAR-8 ovarian", "test-value": "38.5% (inactive)"}

Prompt: Recorded growth for CCN(CC)c1ccc2nc3c4ccccc4c(=NC(=O)c4ccccc4-c4c5ccc(N(CC)CC)cc5[o+]c5cc(N(CC)CC)ccc45)cc-3oc2c1 , please?
Response: 43.8% (inactive)

Prompt: Recorded growth for O=C1/C(=C\c2c[nH]c3ccccc23)c2ccccc2N1c1c(Cl)cccc1Cl , please?
Response: 8.34% (active)
